molecular target: Induced myeloid leukemia cell differentiation protein Mcl-1/Bcl-2-like protein 11 (Homo sapiens); test: Cell Free Mcl-1:Bim Affinity Assay (Mcl-1 HTRF): The inhibition of the Mcl-1/Bim interaction was measured using a time-resolved fluorescence resonance energy transfer (TR-FRET) assay. The recombinant human Mcl-1 (C-terminally 6×His tagged Mcl-1 containing residues 171-327) was generated at Amgen Inc (Thousand Oaks, Calif.). A biotinylated peptide derived from human Bim (residues 51-76) was purchased from CPC Scientific (San Jose, Calif.). The TR-FRET assay was conducted in a 384-well white OptiPlate™ (PerkinElmer, Waltham, Mass.) in a total volume of 40 μL. The reaction mixture contained 0.1 nM Mcl-1(171-327), 0.05 nM biotin-Bim(51-76), 0.05 nM LANCES Eu-W1024 Anti-6×His (PerkinElmer), 0.072 nM Streptavidin-Xlent (Cisbio, Bedford, Mass.), and serially diluted test compounds in the binding buffer of 20 mM Hepes, pH 7.5, 150 mM NaCl, 0.016 mM Brij®35, and 1 mM dithiothreitol. Test compounds were pre-incubated with Mcl-1(171-327) and biotin-Bim (51-76) for 60 min before addition of the detection mixture (LANCE® Eu-W1024 Anti-6×His and Streptavidin-Xlent). The reaction plates were further incubated overnight and then were read on an Envision® multimode reader (PerkinElmer). Fluorescence signals were measured at 620 nm (40-nm bandwidth) and 665 nm (7.5-nm bandwidth) with a 60 μs delay after excitation at 320 nm (75-nm bandwidth). The signal ratio at 665/620 nm corresponded to the Mcl-1/Bim interaction and was used in all data analyses. The IC50 values of test compounds were determined from duplicate data by analyzing competition curves using a four-parameter sigmoidal model in GraphPad Prism (GraphPad Software, San Diego, Calif.) or in Genedata Screener® (Genedata, Basel, Switzerland).
Sequence (Q07820 whole entry, the tested form may be a part): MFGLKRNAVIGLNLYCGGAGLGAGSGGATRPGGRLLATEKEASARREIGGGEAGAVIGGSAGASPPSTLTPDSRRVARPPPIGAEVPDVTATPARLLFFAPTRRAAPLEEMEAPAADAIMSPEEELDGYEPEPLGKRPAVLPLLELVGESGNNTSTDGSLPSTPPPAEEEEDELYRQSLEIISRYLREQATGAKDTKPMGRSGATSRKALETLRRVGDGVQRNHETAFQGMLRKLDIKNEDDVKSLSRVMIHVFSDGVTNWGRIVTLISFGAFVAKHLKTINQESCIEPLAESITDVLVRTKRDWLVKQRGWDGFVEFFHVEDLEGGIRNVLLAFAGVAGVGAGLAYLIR
Sequence (O43521 whole entry, further chain, the tested form may be a part): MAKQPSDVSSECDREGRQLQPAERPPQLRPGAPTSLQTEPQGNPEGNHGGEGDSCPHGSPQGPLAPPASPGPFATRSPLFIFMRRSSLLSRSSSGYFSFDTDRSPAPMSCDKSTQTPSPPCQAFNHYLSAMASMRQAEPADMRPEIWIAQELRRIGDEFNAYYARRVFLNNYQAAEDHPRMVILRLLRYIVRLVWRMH
pIC50: −log10 of the molar value.
Readout Label: pIC50

A. C[C@@H]1[C@@H](C)CCC[C@@H](CC(=O)N2CCN3CCOC[C@H]3C2)[C@@H]2CC[C@H]2CN2C[C@@]3(CCCc4cc(Cl)ccc43)COc3ccc(cc32)C(=O)NS1(=O)=O
B. C[C@@H]1[C@@H](C)CCC[C@H](CN2CCN3CCN(C(=O)OC(C)(C)C)C[C@@H]3C2)[C@@H]2CC[C@H]2CN2C[C@@]3(CCCc4cc(Cl)ccc43)COc3ccc(cc32)C(=O)NS1(=O)=O
Select one. Lower pIC50: A or B Please reply using the label of the selected record.
B
(B: 8.85, A: 9.91)
